system_name: NADPH oxidase 4 (Homo sapiens)
measurement_protocol: compounds shifting NOX4 Amplex Red fluorescence – cell-based, HEK293-NOX4, tetracycline-induced, NOX inhibitor project, primary screen (AID 1160)
condition_label: HEK293-NOX4, Amplex Red H2O2 fluorescence, 45 min; higher = more signal, called active from +8 up or from −8 down
Exercise: state measured z-score for each of the compounds provided.
Form: value (number only, do not type unit).

Query block: Write down the reported z-score (system: NADPH oxidase 4 (Homo sapiens)) of O=C(NCC(O)CO)[C@]1(CCS(=O)(=O)c2ccccc2)N=C(c2ccc(OCCCO)cc2)O[C@@H]1c1ccccc1 (stereo not given in full)
Result block: 0.762

Query block: Write down the reported z-score (system: NADPH oxidase 4 (Homo sapiens)) of "O=C1O[C@H](c2ccccc2)[C@H](c2ccccc2)N2[C@H]1[C@@H](C(=O)NC[C@H](O)c1ccccc1)[C@]1(C(=O)Nc3ccc(C#CC4=CCCCC4)cc31)[C@H]2c1ccc(O)cc1"
Result block: 0.754

Query block: Write down the reported z-score (system: NADPH oxidase 4 (Homo sapiens)) of "O=C1[C@H]2C=C(Br)[C@H](C[C@@H]2OCCOCCO)[C@@]12CO2"
Result block: 0.561

Query block: Write down the reported z-score (system: NADPH oxidase 4 (Homo sapiens)) of "COC(=O)[C@@]1(Cc2ccc(OC)cc2)[C@H]2c3cc(C(=O)N(C)C)n(CCSCCO)c3C[C@H]2CN1C(=O)c1ccccc1"
Result block: 0.978

Query block: Write down the reported z-score (system: NADPH oxidase 4 (Homo sapiens)) of "C=C[C@H](C)[C@H](OC(=O)Nc1ccc(OC)cc1)c1ccc(O)c2ccccc12"
Result block: -1.77

Query block: Write down the reported z-score (system: NADPH oxidase 4 (Homo sapiens)) of CCOC1=C2C(c3ccc(C)cc3)N(S(=O)(=O)c3ccc(C)cc3)CC2n2c(=O)n(-c3ccccc3)c(=O)n2C1 (stereo not given)
Result block: 0.965

Query block: Write down the reported z-score (system: NADPH oxidase 4 (Homo sapiens)) of "CCCC[C@H]1C[C@@H]1[C@@H]1N(P(=O)(c2ccccc2)c2ccccc2)[C@](CO)(c2ccccc2)CC12CC2"
Result block: 1.08

Query block: Write down the reported z-score (system: NADPH oxidase 4 (Homo sapiens)) of "C=C(C(=O)CC[C@@H](OC(C)=O)c1ccc(OCCO)cc1)C(C)C"
Result block: -1.21

Query block: Write down the reported z-score (system: NADPH oxidase 4 (Homo sapiens)) of "CC(C)NC(=O)[C@@H]1c2ccccc2C(=O)N(C2CCCCC2)[C@H]1c1ccc(CO)cc1"
Result block: 0.822

Query block: Write down the reported z-score (system: NADPH oxidase 4 (Homo sapiens)) of "CN(C)CCCC[C@@H]1NC(=O)[C@H]2C[C@@H](C(=O)NCCCCCNC(=O)CS)[C@@H](c3ccc(O)cc3)N2C1=O"
Result block: -0.265

Query block: Write down the reported z-score (system: NADPH oxidase 4 (Homo sapiens)) of "COCCOC(=O)N1C(=O)[C@@]2(c3cc(C#Cc4ccc(OC)cc4)ccc31)[C@H](c1ccc(O)cc1)N1[C@H](c3ccccc3)[C@H](c3ccccc3)OC(=O)[C@H]1[C@@H]2C(=O)N1CCN(c2ncccn2)CC1"
Result block: -1.34

Query block: Write down the reported z-score (system: NADPH oxidase 4 (Homo sapiens)) of CN1C(=O)C2C=CC(C(O)C3=C[C@H]4C[C@@H](C3)C4(C)C)N(Nc3ccc([N+](=O)[O-])cc3[N+](=O)[O-])C2C1=O (stereo not given in full)
Result block: -0.0391

Query block: Write down the reported z-score (system: NADPH oxidase 4 (Homo sapiens)) of "Cc1ccc(N2C(=O)c3ccccc3[C@@H](C(=O)NCC(C)C)[C@@H]2c2ccc(CO)cc2)nc1"
Result block: 0.918

Query block: Write down the reported z-score (system: NADPH oxidase 4 (Homo sapiens)) of "CC(C)(C)OC(=O)CC[C@@]1(C(N)=O)N=C(c2ccc(OCCCO)cc2)O[C@@H]1c1ccccc1N=[N+]=[N-]"
Result block: -0.154

Query block: Write down the reported z-score (system: NADPH oxidase 4 (Homo sapiens)) of CC1CC/C=C\[C@H]2OC34C=CCN(Cn5nnc6ccccc65)C(=O)[C@H]3N(CCCO)C(=O)[C@@H]4C2C(=O)O1 (stereo not given in full)
Result block: -1.82

Query block: Write down the reported z-score (system: NADPH oxidase 4 (Homo sapiens)) of C=CCC(OC(C)=O)[C@@H]1[C@@H](N(Cc2cc3ccccc3o2)C(=O)c2cccc3ccccc23)c2cc(OCCCO)ccc2N1C(=O)Cc1ccc2ccccc2c1 (stereo not given in full)
Result block: -1.46

Query block: Write down the reported z-score (system: NADPH oxidase 4 (Homo sapiens)) of "COCCCNC(=O)[C@@]1(C)c2ccccc2C(=O)N(Cc2ccccc2)[C@H]1c1ccc(CO)cc1"
Result block: -2.44

Query block: Write down the reported z-score (system: NADPH oxidase 4 (Homo sapiens)) of "C=C(CCCC)/C(=C/C[C@@H](OC(=O)c1ccncc1)c1ccc(CO)o1)c1cc(C(=O)OC)ccc1OC"
Result block: -1.08

Query block: Write down the reported z-score (system: NADPH oxidase 4 (Homo sapiens)) of "CO[C@H]1O[C@H](CO)[C@@H](OC(=O)Nc2ccc3c(c2)OCO3)[C@H](OC(=O)Nc2ccc3c(c2)OCO3)[C@H]1OC(=O)Nc1ccc2c(c1)OCO2"
Result block: -0.847

Query block: Write down the reported z-score (system: NADPH oxidase 4 (Homo sapiens)) of "Cc1cccc(/C=C/C=O)c1"
Result block: 0.0658

Query block: Write down the reported z-score (system: NADPH oxidase 4 (Homo sapiens)) of "O=C(NCC(F)(F)F)[C@@H]1c2ccccc2C(=O)N(Cc2ccccc2)[C@H]1c1ccc(CO)cc1"
Result block: 0.597

Query block: Write down the reported z-score (system: NADPH oxidase 4 (Homo sapiens)) of "C=CCNC(=O)[C@@H]1[C@H]2C(=O)O[C@H](c3ccccc3)[C@H](c3ccccc3)N2[C@H](c2ccccc2OCCO)[C@@]12C(=O)N(C(=O)OCCOC)c1ccc(C#CCC(C(=O)OC)C(=O)OC)cc12"
Result block: 0.966

Query block: Write down the reported z-score (system: NADPH oxidase 4 (Homo sapiens)) of CN1C(=O)C2C(C1=O)C1C=C(c3ccc(CO)cc3)C2C(C2CC2)N1Cc1cc2c(cc1Br)OCO2 (stereo not given)
Result block: -1.04

Query block: Write down the reported z-score (system: NADPH oxidase 4 (Homo sapiens)) of "C#C[C@H]1Oc2ccccc2S(=O)(=O)N2CCC[C@@H]12"
Result block: -1.29

Query block: Write down the reported z-score (system: NADPH oxidase 4 (Homo sapiens)) of "[N-]=[N+]=Nc1ccccc1[C@@H]1OC(c2ccc(OCCCO)cc2)=N[C@]1(CCS(=O)(=O)c1ccccc1)C(=O)O"
Result block: -0.0168

Query block: Write down the reported z-score (system: NADPH oxidase 4 (Homo sapiens)) of COc1cc(NN2C(C(O)c3ccccc3)C=CC3C(=O)N(c4ccccc4)C(=O)C32)cc(OC)c1OC (stereo not given)
Result block: -4.63

Query block: Write down the reported z-score (system: NADPH oxidase 4 (Homo sapiens)) of "O=S(=O)(NCCCO)c1ccc(Br)cc1"
Result block: -0.0431

Query block: Write down the reported z-score (system: NADPH oxidase 4 (Homo sapiens)) of "C=CCOC(=O)[C@@H]1[C@H]2C(=O)O[C@H](c3ccccc3)[C@H](c3ccccc3)N2[C@H](c2ccc(OCCOC(=O)[C@H]3C[C@H]4C(=O)N[C@@H](Cc5ccccc5)C(=O)N4[C@H]3c3ccc(O)cc3)cc2)[C@@]12C(=O)Nc1ccc(I)cc12"
Result block: 0.471

Query block: Write down the reported z-score (system: NADPH oxidase 4 (Homo sapiens)) of "C[C@]1(C(=O)NCC(F)(F)F)c2ccccc2C(=O)N(Cc2cc(F)cc(C(F)(F)F)c2)[C@H]1c1ccc(CO)cc1"
Result block: -2.9

Query block: Write down the reported z-score (system: NADPH oxidase 4 (Homo sapiens)) of "CC(=O)NCCCC[C@@H]1NC(=O)[C@@H]2C[C@H](C(=O)NCCCCCC[N+](C)(C)C)[C@H](c3cccc(OCCO)c3)N2C1=O"
Result block: 0.91
